Where do these numbers come from? They come from PubChem BioAssay AID1963431.

# Tested on: Rh18 complex spheroid viability, percent test/control
# test summary: Anticancer human tumor Rh18 cell line growth inhibition [Asc]; active means viability on the fitted dose curve at most 10% of control; inactive means the rest;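 further: spheroids exposed to compound for 7 days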
# test conditions: second compound 1 µM; first compound 0.01 µM
# Excerpt: Multicellular complex tumor spheroid response to apoptosis pathway targeting inhibitors Alrizomadlin, Pelcitoclax, and Dasminapant in combination with a variety of drugs and investigational agents in selected tumor cell lines […] Compounds. […] If the clinical Cmax for an agent had not been determined, the highest concentration tested was 10 microM. […]
// allowed return values: active, inactive

Here are 2 compounds together with their reported answers.
{"columns": ["compound", "assay target", "label value"],
 "data": [
  ["NC1CCC(NC2CC2c2ccccc2)CC1 (stereo not drawn) + Cc1c(S(C)(=O)=O)c(-c2cc(F)cc(N3CCN(c4ccc(NS(=O)(=O)c5ccc(NC(CCN6CCC(C(=O)OCCCP(=O)(O)O)CC6)CSc6ccccc6)c(S(=O)(=O)C(F)(F)F)c5)cc4)CC3)c2)c(-c2ccc(Cl)cc2)n1C(C)C", "Rh18 complex spheroid viability, percent test/control", "active"],
  ["O=C(c1ccc(F)c(F)c1Nc1ccc(I)cc1F)N1CC(O)([C@@H]2CCCCN2)C1 + Cc1c(S(C)(=O)=O)c(-c2cc(F)cc(N3CCN(c4ccc(NS(=O)(=O)c5ccc(NC(CCN6CCC(C(=O)OCCCP(=O)(O)O)CC6)CSc6ccccc6)c(S(=O)(=O)C(F)(F)F)c5)cc4)CC3)c2)c(-c2ccc(Cl)cc2)n1C(C)C", "Rh18 complex spheroid viability, percent test/control", "inactive"]
]}

Shift focus to the following entry.
Ask: How was CNC(C)C(=O)NC1CN(S(=O)(=O)c2cccc(S(=O)(=O)N3CCC4CCC(C(=O)NC(c5ccccc5)c5ccccc5)N4C(=O)C(NC(=O)C(C)NC)C3)c2)CCC2CCC(C(=O)NC(c3ccccc3)c3ccccc3)N2C1=O (stereo not drawn) + Cc1c(S(C)(=O)=O)c(-c2cc(F)cc(N3CCN(c4ccc(NS(=O)(=O)c5ccc(NC(CCN6CCC(C(=O)OCCCP(=O)(O)O)CC6)CSc6ccccc6)c(S(=O)(=O)C(F)(F)F)c5)cc4)CC3)c2)c(-c2ccc(Cl)cc2)n1C(C)C classified in this test?
Result: active
